- assay notes: TD Phase (Groups 1 and 3): plasma and ocular tissue concentrations and pharmacokinetics of Compound 18 and its metabolite Compound 4 after once daily ocular instillation of Compound 18 nanosuspension for 7 days
- Type: in vivo, New Zealand white rabbits
- assay conditions: male, New Zealand white, rabbit, sclera/choroid, other: ocular instillation (eye drop), 0.798 mg/kg/day, TD Phase, Group 1, 1 h, individual animals; read-out: Final Compound 18 Sclera/Choroid Conc.
metric: concentration at 1 h (ng/g)
API: value field is a number in ng/g; no unit string.

Ask: Could you tell me which concentration at 1 h is on file for CCCc1nn(C)c2c(=O)[nH]c(-c3cc(S(=O)(=O)N4CC(CCCO[N+](=O)[O-])C4)ccc3OCC)nc12 ?
Reply: 31.1
